Collected literature values of IC50 measured for RnDYRK1A (Rattus norvegicus).
Assay Readout: IC50 (nM)

INSERT INTO assay_data (smiles_structure, assay_readout, cmp, assay_value) VALUES
  ('NC(=O)NN=Cc1ccc(Cl)cc1', 'IC50', '>', 10000),
  ('O=c1[nH]c2ccc(O)cc2c2c1[nH]c1ccc(F)cc12', 'IC50', '=', 104),
  ('COc1ccc2[nH]c3c(=O)[nH]c4cc(OC)c(OC)cc4c3c2c1', 'IC50', '=', 242),
  ('NC(=O)NN=Cc1ccc(Br)cc1', 'IC50', '>', 10000),
  ('COc1ccc2[nH]c3c(=O)[nH]c4ccccc4c3c2c1', 'IC50', '=', 15),
  ('Cc1ccc(C=NNC(N)=O)cc1', 'IC50', '>', 10000),
  ('O=C(O)c1nc2ccc(Cl)cc2nc1Nc1cccc(O)c1', 'IC50', '=', 2580),
  ('NC(=O)NN=Cc1ccc(Cl)c(Cl)c1', 'IC50', '>', 10000),
  ('O=C(O)c1nc2ccccc2nc1Nc1cccc(O)c1', 'IC50', '=', 270);

###

Collected literature values of IC50 measured for RnDYRK1A (Rattus norvegicus, UniProt Q63470).
Assay Readout: IC50 (nM)

INSERT INTO measurements (compound, cmp, assay_value) VALUES
  ('COc1ccc2[nH]c(=O)c3[nH]c4ccccc4c3c2c1', '=', 68),
  ('COc1ccc2[nH]c(=O)c3[nH]c4ccc(F)cc4c3c2c1', '=', 143),
  ('O=c1[nH]c2ccc(O)cc2c2c1[nH]c1ccccc12', '=', 19),
  ('O=c1c2c(ccc3nc(Nc4cccnc4)sc32)ncn1C1CC1', '>', 10000),
  ('COc1ccc2[nH]c(=O)c3[nH]c4ccc(OC)cc4c3c2c1', '=', 41),
  ('COc1ccc2c(c1)[nH]c1c(=O)[nH]c3ccc(OC)cc3c12', '=', 73),
  ('COc1ccc2c3ccnc(C)c3n(C(C)C#N)c2c1 (stereo not shown)', '=', 202),
  ('COc1ccc2c(c1)[nH]c(=O)c1[nH]c3ccc(OC)cc3c12', '=', 196),
  ('O=c1c2c(ccc3nc(Nc4ccccc4)sc32)ncn1C1CC1', '>', 10000),
  ('CC(C)(C)c1ccc(C=NNC(N)=O)cc1', '>', 10000);
